biological target: SIRT1 (Homo sapiens); assay: Mass spectrometry based SIRT1 deacetylase activation assay; format: biochemical; settings: 25 min, percent maximum fold activation of SIRT1, read-out: SIRT1 % FOLD ACT.
MEASUREMENT NAME: Emax

The examples below pair each entry with its known result.
// sample O=C(Nc1cccc2cnn(-c3cccc(C(F)(F)F)c3)c(=O)c12)c1cscn1 , its Emax was < 150%

// sample O=C(Nc1cccc2cnn(-c3cccc(OC(F)(F)F)c3)c(=O)c12)c1cccc(CN2CCOCC2)n1 , its Emax was > 150%

// sample O=C(Nc1cccc2cnn(-c3cccc(C(F)(F)F)c3)c(=O)c12)c1cnccn1 , its Emax was > 150%

Consider now this further molecule.
// sample O=C(Nc1cccc2c1C(=O)N(c1cccc(C(F)(F)F)c1)CC2)c1cnccn1 , its Emax was > 150%

----------
Molecular target: SIRT1 (Homo sapiens, UniProt Q96EB6)
Sequence (Q96EB6 1-747): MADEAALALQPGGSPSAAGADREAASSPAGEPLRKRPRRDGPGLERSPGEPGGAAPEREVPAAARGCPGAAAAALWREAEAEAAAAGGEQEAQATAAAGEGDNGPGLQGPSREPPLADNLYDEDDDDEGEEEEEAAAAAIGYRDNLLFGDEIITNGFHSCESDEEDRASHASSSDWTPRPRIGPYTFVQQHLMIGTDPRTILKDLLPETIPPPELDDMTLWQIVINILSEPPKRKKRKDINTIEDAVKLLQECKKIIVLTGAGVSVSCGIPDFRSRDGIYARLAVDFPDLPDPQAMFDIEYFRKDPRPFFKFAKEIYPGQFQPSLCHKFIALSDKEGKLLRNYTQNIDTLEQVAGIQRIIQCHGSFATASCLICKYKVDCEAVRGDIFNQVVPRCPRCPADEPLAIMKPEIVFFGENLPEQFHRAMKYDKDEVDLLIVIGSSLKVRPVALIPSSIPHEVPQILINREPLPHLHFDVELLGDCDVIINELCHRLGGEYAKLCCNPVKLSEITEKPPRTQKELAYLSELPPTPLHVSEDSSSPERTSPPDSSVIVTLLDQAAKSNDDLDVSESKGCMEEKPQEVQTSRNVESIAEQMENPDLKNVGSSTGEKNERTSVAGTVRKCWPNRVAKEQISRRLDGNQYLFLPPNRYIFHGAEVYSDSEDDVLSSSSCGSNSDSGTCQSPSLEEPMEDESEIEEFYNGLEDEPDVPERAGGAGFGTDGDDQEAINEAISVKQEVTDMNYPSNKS
Test: Mass spectrometry based SIRT1 deacetylase activation assay
Assay type: biochemical
Conditions: concentration of test compound that results in 150% activation of SIRT1
From the text: A mass spectrometry based assay was used to identify modulators of SIRT1 activity. The mass spectrometry based assay utilizes a peptide having 20 amino acid residues as follows: Ac-EE-K(biotin)-GQSTSSHSK(Ac)NleSTEG-K(5TMR)-EE-NH2 (SEQ ID NO: 1) wherein K(Ac) is an acetylated lysine residue and Nle is a norleucine. The peptide is labeled with the fluorophore 5TMR (excitation 540 nm/emission 580 nm) at the C-terminus. The sequence of the peptide substrate is based on p53 with several modifications. […]
Measured EC1.5 (concentration giving 150% activation) of individual entries

The examples below pair each entry with its known result.
// sample O=C(Nc1cccc2cnn(-c3cccc(C(F)(F)F)c3)c(=O)c12)c1cccc(CN2CCOCC2)n1 [Compound 106] , its EC1.5 (concentration giving 150% activation) was < 5 µM

// sample O=C(Nc1cccc2cnn(-c3cccc(C(F)(F)F)c3)c(=O)c12)C1CCOCC1 [Compound 104] , its EC1.5 (concentration giving 150% activation) was > 50 µM

// sample O=C(Nc1cccc2cnn(-c3cccc(OC(F)(F)F)c3)c(=O)c12)c1cccc(OCC(O)CO)n1 (stereo not drawn) [Compound 107] , its EC1.5 (concentration giving 150% activation) was < 5 µM

// sample O=C(Nc1cccc2c1C(=O)N(c1cccc(C(F)(F)F)c1)CC2)c1cscn1 [Compound 100] , its EC1.5 (concentration giving 150% activation) was 5 to 50 µM

// sample O=C(Nc1cccc2cnn(-c3cccc(C(F)(F)F)c3)c(=O)c12)c1cnccn1 [Compound 103] , its EC1.5 (concentration giving 150% activation) was 5 to 50 µM

// sample O=C(Nc1cccc2cnn(-c3cccc(C(F)(F)F)c3)c(=O)c12)c1cscn1 [Compound 102] , its EC1.5 (concentration giving 150% activation) was < 5 µM

// sample O=C(Nc1cccc2cnn(-c3cccc(OC(F)(F)F)c3)c(=O)c12)c1cccc(CN2CCOCC2)n1 [Compound 108] , its EC1.5 (concentration giving 150% activation) was < 5 µM

// sample O=C(Nc1cccc2c1C(=O)N(c1cccc(C(F)(F)F)c1)CC2)c1cnccn1 [Compound 101] , its EC1.5 (concentration giving 150% activation) was 5 to 50 µM

***
// sample O=C(Nc1cccc2cnn(-c3cccc(C(F)(F)F)c3)c(=O)c12)c1cccc(OCC(O)CO)n1 (stereo not drawn) [Compound 105] , its EC1.5 (concentration giving 150% activation) was < 5 µM
